Below is a list of entries, each paired with its recorded pIC50 value.
# assayComment: Inhibition of pig gastric H+/K+-ATPase in stomach ion leaky membrane vesicle assessed as reduction in monophosphate production after 30 mins by microplate reader analysis in presence of valinomycin
# Type: cell membranes, Sus scrofa
measure: pIC50

compound	result
CC(C)C/C=C1\O[C@H]2C[C@@H](C)C/C(=N\OCc3ccccc3)[C@H]2[C@@]1(C)O	6.25
CC(C)C/C=C1\O[C@H]2C[C@@H](C)C/C(=N\O)[C@H]2[C@@]1(C)O	5.54
CC(C)CCC1O[C@H]2C[C@@H](C)C/C(=N\O)[C@H]2[C@@]1(C)O (some centres not stated)	5.3
C#CCO/N=C1\C[C@H](C)C[C@@H]2O/C(=C\CC(C)C)[C@](C)(O)[C@H]12	6.36
CC(C)C/C=C1\O[C@H]2C[C@@H](C)C/C(=N\OC(=O)Nc3ccccc3)[C@H]2[C@@]1(C)O	6
CCCCO/N=C1\C[C@H](C)C[C@@H]2O/C(=C\CC(C)C)[C@](C)(O)[C@H]12	5.94
CCOC(=O)CO/N=C1\C[C@H](C)C[C@@H]2O/C(=C\CC(C)C)[C@](C)(O)[C@H]12	6.07
